Tgt: full-length recombinant MrkA protein (Klebsiella pneumoniae, UniProt P12267)
Construct: purchased MyBiosource MBS1248970
Sequence (P12267 23-202): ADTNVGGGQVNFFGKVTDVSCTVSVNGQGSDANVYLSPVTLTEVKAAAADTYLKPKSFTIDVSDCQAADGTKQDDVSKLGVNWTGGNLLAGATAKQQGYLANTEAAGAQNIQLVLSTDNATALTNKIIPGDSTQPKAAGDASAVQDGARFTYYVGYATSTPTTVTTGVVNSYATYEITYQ
Measurement notes: Sandwich ELISA of PCC binding to full-length MrkA
Condition description: compared with cy(LLFFF)
Bridges are numbered along the chain shown (N, C = ends). Where no end group is shown, it is not given here. [ ]: non-standard residue; d: D form. Lys(N3) = [N-]=[N+]=NCCCC[C@H](N)C(=O)O
Experimental endpoint: binding / affinity to full-length MrkA protein (ELISA signal)

| Substance | Value observed |
| --- | --- |
| cy(ALFFF): alanine-substituted cy(LLFFF) analogue ([Lys(N3)]ALFFFX; triazole 1-7; not fully specified (residue 7); printed as cy(ALFFF)) | Modestly lower binding |
| cy(LLAFF): alanine-substituted cy(LLFFF) analogue ([Lys(N3)]LLAFFX; triazole 1-7; not fully specified (residue 7); printed as cy(LLAFF)) | Modestly lower binding |
| cy(TTFFF): additional MrkA ligand with lower affinity ([Lys(N3)]TTFFFX; bridge 1-7; not fully specified (residue 7, bridges); printed as cy(TTFFF)) | lower affinities to MrkA |
| cy(LAFFF): alanine-substituted cy(LLFFF) analogue ([Lys(N3)]LAFFFX; triazole 1-7; not fully specified (residue 7); printed as cy(LAFFF)) | Modestly lower binding |
| cy(GVHRL): additional MrkA ligand with lower affinity (XGVHRL[Lys(N3)]; triazole 1-7; not fully specified (residue 1); printed as cy(GVHRL)) | lower affinities to MrkA |
| cy(YRHLG): additional MrkA ligand with lower affinity (XYRHLG[Lys(N3)]; bridge 1-7; not fully specified (residue 1, bridges); printed as cy(YRHLG)) | lower affinities to MrkA |

Recorded values, source patent US12209142B2.
